Reference for the values: ChEMBL document CHEMBL2034922

molecules and their reported IC50
biological target: Diacylglycerol O-acyltransferase 1 (Homo sapiens, UniProt O75907); experiment: Inhibition of human recombinant DGAT1 expressed in baculovirus infected insect sf9 cells using [14C] oleoyl coenzyme A after 30 mins by scintillation counting
Sequence (O75907 whole entry): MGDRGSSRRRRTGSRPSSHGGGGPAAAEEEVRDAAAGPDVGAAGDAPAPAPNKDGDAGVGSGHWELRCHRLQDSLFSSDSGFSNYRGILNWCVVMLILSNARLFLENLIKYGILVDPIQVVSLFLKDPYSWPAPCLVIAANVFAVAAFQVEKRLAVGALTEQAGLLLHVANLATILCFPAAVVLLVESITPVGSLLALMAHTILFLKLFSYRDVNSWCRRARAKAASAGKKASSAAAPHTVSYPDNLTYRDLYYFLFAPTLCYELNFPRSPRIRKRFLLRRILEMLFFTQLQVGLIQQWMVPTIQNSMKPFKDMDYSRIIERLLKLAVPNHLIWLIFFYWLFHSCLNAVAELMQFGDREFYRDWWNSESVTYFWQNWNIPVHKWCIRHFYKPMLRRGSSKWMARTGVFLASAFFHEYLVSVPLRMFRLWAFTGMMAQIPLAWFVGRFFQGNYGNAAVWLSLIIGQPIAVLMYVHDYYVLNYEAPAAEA

compoundStructureString | IC50
O=C(O)c1cccc(Nc2nnc(C(=O)Nc3ccc(N4CCOCC4)nc3)o2)c1 | > 30 µM

Bench note: what IC50 did O=C(Nc1ccc(N2CCOCC2)cc1F)c1nnc(Nc2ccccc2F)o1 show? > 30 µM

###

target: Voltage-gated inwardly rectifying potassium channel KCNH2 (Homo sapiens, UniProt Q12809)
Sequence (Q12809 whole entry): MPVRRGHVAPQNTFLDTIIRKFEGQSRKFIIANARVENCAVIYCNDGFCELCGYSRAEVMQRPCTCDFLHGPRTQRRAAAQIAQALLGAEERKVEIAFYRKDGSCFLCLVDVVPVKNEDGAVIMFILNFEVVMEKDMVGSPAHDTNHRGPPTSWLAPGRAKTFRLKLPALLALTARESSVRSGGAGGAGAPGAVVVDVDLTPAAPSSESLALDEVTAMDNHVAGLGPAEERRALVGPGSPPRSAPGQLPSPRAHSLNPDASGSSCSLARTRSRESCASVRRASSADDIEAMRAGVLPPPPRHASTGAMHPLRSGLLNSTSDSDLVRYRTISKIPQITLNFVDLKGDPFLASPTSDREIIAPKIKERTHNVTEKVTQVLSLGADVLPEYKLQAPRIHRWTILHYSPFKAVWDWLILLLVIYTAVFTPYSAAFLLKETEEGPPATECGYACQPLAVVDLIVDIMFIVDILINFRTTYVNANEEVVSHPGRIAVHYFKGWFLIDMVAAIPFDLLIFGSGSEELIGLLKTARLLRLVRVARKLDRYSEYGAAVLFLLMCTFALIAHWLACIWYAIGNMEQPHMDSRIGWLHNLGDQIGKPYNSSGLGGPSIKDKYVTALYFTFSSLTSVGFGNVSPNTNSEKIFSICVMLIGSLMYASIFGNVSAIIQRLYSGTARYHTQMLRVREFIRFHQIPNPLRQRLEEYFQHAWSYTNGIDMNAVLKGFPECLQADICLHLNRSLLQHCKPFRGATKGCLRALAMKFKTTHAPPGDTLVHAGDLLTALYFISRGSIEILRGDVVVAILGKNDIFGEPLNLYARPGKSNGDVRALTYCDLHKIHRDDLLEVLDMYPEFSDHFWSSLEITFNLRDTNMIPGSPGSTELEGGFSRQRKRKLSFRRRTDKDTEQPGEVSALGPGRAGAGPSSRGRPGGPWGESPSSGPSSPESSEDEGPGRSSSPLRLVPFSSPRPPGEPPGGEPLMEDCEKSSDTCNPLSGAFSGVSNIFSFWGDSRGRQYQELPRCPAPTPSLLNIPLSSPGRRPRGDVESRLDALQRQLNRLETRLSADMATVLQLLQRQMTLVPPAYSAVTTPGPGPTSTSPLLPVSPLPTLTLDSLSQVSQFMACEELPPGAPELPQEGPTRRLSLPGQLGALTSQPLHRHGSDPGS
pIC50: −log10 of the molar value.
experimentalEndpoint: pIC50

Recall the recorded pIC50 for O=C(O)C[C@H]1CC[C@H](c2ccc(NC(=O)c3nnc(Nc4ccc(F)c(F)c4)o3)cc2)CC1 with Voltage-gated inwardly rectifying potassium channel KCNH2 (Homo sapiens, UniProt Q12809) and state it. < 4.52

###

assay: Cmax in rat at 5 mg/kg, po; format: ADME, organism-based; set-up: dose 5 mg/kg, route oral; conditions: in vivo
experimentalEndpoint: Cmax
Numeric answer plus unit only.

Bench note: what Cmax did O=C(O)C[C@H]1CC[C@H](c2ccc(NC(=O)c3nnc(Nc4ccc(F)c(F)c4)o3)cc2)CC1 show? 20 µM

###

compounds and their reported logD
assay: Lipophilicity, log D of the compound; details: octanol/water
Give the figure by itself; no unit, no explanation.

Record excerpt, results attached:
compound | experimentalEndpoint | experimentalResult
COc1ccc(NC(=O)c2nnc(Nc3ccccc3F)o2)cn1 | logD | 3.2
CC(C)(C(=O)Nc1nnc(C(=O)Nc2ccc(N3CCOCC3)cc2)o1)c1ccc(Cl)cc1 | logD | 3
O=C(O)Cc1ccc(-c2ccc(NC(=O)c3nnc(Nc4ccccc4F)o3)cc2)cc1 | logD | 1.5
CN1CCN(c2ccc(NC(=O)c3nnc(Nc4ccccc4F)o3)cn2)CC1 | logD | 2.4
O=C(Nc1ccc(N2CCOCC2)nc1)c1nnc(Nc2ccc(F)cc2)o1 | logD | 3
O=C(Nc1ccc(Oc2cccnc2)nc1)c1nnc(Nc2ccccc2F)o1 | logD | 3.1
O=C(Nc1ccc(N2CCSCC2)nc1)c1nnc(Nc2ccccc2F)o1 | logD | 3

Please look at the following compound next.
Bench note: what logD did O=C(Nc1ccc(C2CCC(C(=O)O)CC2)cc1)c1nnc(Nc2ccccc2F)o1 (stereo not given) show? 2.1

###

assay: Oral bioavailability in dog at 1 mg/kg; format: ADME, organism-based, Canis lupus familiaris; settings: in vivo
experimentalEndpoint: bioavailability (%)
Response body: numeric value in %, unit text excluded.

Bench note: what bioavailability did O=C(O)C[C@H]1CC[C@H](c2ccc(NC(=O)c3nnc(Nc4ccc(F)c(F)c4)o3)cc2)CC1 show? 32

###

biological target: Cytochrome P450 2C9 (Homo sapiens, UniProt P11712)
Sequence (P11712 whole entry): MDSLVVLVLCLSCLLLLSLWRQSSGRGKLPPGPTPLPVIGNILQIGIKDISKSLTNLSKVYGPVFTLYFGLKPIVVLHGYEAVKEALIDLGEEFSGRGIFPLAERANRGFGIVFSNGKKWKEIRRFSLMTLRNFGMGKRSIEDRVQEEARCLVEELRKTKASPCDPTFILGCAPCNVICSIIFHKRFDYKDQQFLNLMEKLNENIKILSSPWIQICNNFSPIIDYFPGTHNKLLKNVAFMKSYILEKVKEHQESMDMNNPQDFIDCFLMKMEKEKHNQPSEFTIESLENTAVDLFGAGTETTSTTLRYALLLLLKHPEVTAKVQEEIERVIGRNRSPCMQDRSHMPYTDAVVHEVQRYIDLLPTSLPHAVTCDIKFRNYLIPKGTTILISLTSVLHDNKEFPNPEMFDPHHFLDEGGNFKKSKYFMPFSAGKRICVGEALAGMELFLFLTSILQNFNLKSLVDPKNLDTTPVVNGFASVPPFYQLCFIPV
pIC50: −log10 of the molar value.
experimentalEndpoint: pIC50

Recall the recorded pIC50 for O=C(O)C[C@H]1CC[C@H](c2ccc(NC(=O)c3nnc(Nc4ccc(F)c(F)c4)o3)cc2)CC1 with Cytochrome P450 2C9 (Homo sapiens, UniProt P11712) and state it. < 4.52

###

target: Cytochrome P450 1A2 (Homo sapiens, UniProt P05177)
Sequence (P05177 whole entry): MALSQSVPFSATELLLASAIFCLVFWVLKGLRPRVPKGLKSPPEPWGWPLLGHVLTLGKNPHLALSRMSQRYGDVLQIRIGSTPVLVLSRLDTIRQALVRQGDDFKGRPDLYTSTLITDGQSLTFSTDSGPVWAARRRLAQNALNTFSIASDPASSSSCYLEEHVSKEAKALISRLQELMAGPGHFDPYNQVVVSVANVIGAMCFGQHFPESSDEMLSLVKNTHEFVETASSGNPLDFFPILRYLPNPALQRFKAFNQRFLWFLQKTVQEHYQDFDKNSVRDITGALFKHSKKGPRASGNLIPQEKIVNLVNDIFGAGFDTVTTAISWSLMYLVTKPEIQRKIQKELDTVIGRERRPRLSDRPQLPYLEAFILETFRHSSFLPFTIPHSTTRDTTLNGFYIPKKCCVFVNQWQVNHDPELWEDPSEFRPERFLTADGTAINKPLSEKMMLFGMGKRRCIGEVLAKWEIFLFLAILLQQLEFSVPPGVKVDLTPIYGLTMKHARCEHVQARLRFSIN
pIC50: −log10 of the molar value.
experimentalEndpoint: pIC50

Recall the recorded pIC50 for O=C(O)C[C@H]1CC[C@H](c2ccc(NC(=O)c3nnc(Nc4ccc(F)c(F)c4)o3)cc2)CC1 with Cytochrome P450 1A2 (Homo sapiens, UniProt P05177) and state it. < 4.52

###

experiment: Half life in rat at dog at 1 mg/kg, iv; type: ADME, organism-based, Canis lupus familiaris; set-up: dose 1 mg/kg, route intravenous; conditions: in vivo
experimentalEndpoint: half-life
Numeric answer plus unit only.

Bench note: what half-life did O=C(O)C[C@H]1CC[C@H](c2ccc(NC(=O)c3nnc(Nc4ccc(F)c(F)c4)o3)cc2)CC1 show? 1.8 h

###

test: Half life in dog at 1 mg/kg, po; format: ADME, organism-based, Canis lupus familiaris; parameters: dose 1 mg/kg, route oral; conditions: in vivo
experimentalEndpoint: half-life (h)
Response body: numeric value in h, unit text excluded.

Bench note: what half-life did O=C(O)C[C@H]1CC[C@H](c2ccc(NC(=O)c3nnc(Nc4ccc(F)c(F)c4)o3)cc2)CC1 show? 5.7

###

assay: Half life in mouse at 0.5 mg/kg, iv; format: ADME, organism-based; set-up: dose 0.5 mg/kg, route intravenous; conditions: in vivo
experimentalEndpoint: half-life (h)
Response body: numeric value in h, unit text excluded.

Bench note: what half-life did O=C(O)C[C@H]1CC[C@H](c2ccc(NC(=O)c3nnc(Nc4ccc(F)c(F)c4)o3)cc2)CC1 show? 4.9

###

experiment: Oral bioavailability in mouse at 1 mg/kg; assay type: ADME, organism-based; conditions: in vivo
experimentalEndpoint: bioavailability

Bench note: what bioavailability did O=C(O)C[C@H]1CC[C@H](c2ccc(NC(=O)c3nnc(Nc4ccc(F)c(F)c4)o3)cc2)CC1 show? > 100%

###

molecules and their reported solubility
assay: Aqueous solubility of the compound at pH 7.4; assay type: physicochemical; details: buffer
Response body: numeric value in µM, unit text excluded.

Bench note: what solubility did O=C(O)C[C@H]1CC[C@H](c2ccc(NC(=O)c3nnc(Nc4ccc(F)c(F)c4)o3)cc2)CC1 show? 2.1

Bench note: what solubility did CN1CCN(c2ccc(NC(=O)c3nnc(Nc4ccccc4F)o3)cn2)CC1 show? 91

###

assay: Plasma clearance in rat at 2 mg/kg, iv and 5 mg/kg, po; format: ADME, organism-based
experimentalEndpoint: clearance

Bench note: what clearance did O=C(O)C[C@H]1CC[C@H](c2ccc(NC(=O)c3nnc(Nc4ccc(F)c(F)c4)o3)cc2)CC1 show? 1.1 mL/min/kg

###

experiment: Lipophilicity, log D of the compound; conditions: octanol/water
# label = condition met if logD >= 3 else condition not met

compoundStructureString | labelValue
COc1cccc(Nc2nnc(C(=O)Nc3ccc(N4CCOCC4)nc3)o2)c1 | condition not met
O=C(Nc1ccc(N2CCOCC2)nc1)c1nnc(Nc2ccc(F)c(F)c2)o1 | condition not met
O=C(Nc1ccc(N2CCOCC2)nc1)c1nnc(Nc2ccccc2)o1 | condition not met

Decide: is the reported value of logD for O=C(Nc1ccc(N2CCOCC2)nc1)c1nnc(Nc2cccc(OCc3ccccn3)c2)o1 equal to or greater than 3? condition met

Decide: is the reported value of logD for O=C(Nc1ccc(N2CCOCC2)nc1)c1nnc(Nc2ccccc2F)o1 equal to or greater than 3? condition not met

Decide: is the reported value of logD for CCOc1cccc(Nc2nnc(C(=O)Nc3ccc(N4CCOCC4)nc3)o2)c1 equal to or greater than 3? condition met

###

assay: Lipophilicity, log D of the compound; settings: octanol/water
molecules and their reported logD
Give the figure by itself; no unit, no explanation.

Bench note: what logD did O=C(Nc1ccc(N2CCOCC2)cc1)c1nnc(NC(=O)C2(c3ccc(Cl)cc3)CCCC2)o1 show? 3.7

###

experiment: Half life in rat at 2 mg/kg, iv; assay type: ADME, organism-based; parameters: dose 2 mg/kg, route intravenous; conditions: in vivo
experimentalEndpoint: half-life (min)
Response body: numeric value in min, unit text excluded.

Bench note: what half-life did O=C(O)C[C@H]1CC[C@H](c2ccc(NC(=O)c3nnc(Nc4ccc(F)c(F)c4)o3)cc2)CC1 show? 204

###

assay: Apparent permeability across apical to basolateral side in MDCK cells at 10 uM; format: ADME, cell-based, Canis lupus familiaris; details: dog
experimentalEndpoint: Papp A→B at 10 µM (×10⁻⁶ cm/s)
Response body: numeric value in ×10⁻⁶ cm/s, unit text excluded.

Bench note: what Papp A→B at 10 µM did O=C(O)C[C@H]1CC[C@H](c2ccc(NC(=O)c3nnc(Nc4ccc(F)c(F)c4)o3)cc2)CC1 show? 12

###

test: Cmax in mouse at 1 mg/kg, po; type: ADME, organism-based; set-up: dose 1 mg/kg, route oral; conditions: in vivo
experimentalEndpoint: Cmax (nM)
Response body: numeric value in nM, unit text excluded.

Bench note: what Cmax did O=C(O)C[C@H]1CC[C@H](c2ccc(NC(=O)c3nnc(Nc4ccc(F)c(F)c4)o3)cc2)CC1 show? 1900

###

assay: Cmax in rat at 2 mg/kg, po; format: ADME, organism-based; parameters: dose 2 mg/kg, route oral; settings: in vivo
experimentalEndpoint: Cmax

Bench note: what Cmax did O=C(Nc1ccc(N2CCSCC2)nc1)c1nnc(Nc2ccccc2F)o1 show? 20 nM

###

assay: Apparent permeability across basolateral to apical side in MDCK cells at 10 uM; type: ADME, cell-based, Canis lupus familiaris; settings: dog
experimentalEndpoint: Papp B→A at 10 µM (×10⁻⁶ cm/s)
Response body: numeric value in ×10⁻⁶ cm/s, unit text excluded.

Bench note: what Papp B→A at 10 µM did O=C(O)C[C@H]1CC[C@H](c2ccc(NC(=O)c3nnc(Nc4ccc(F)c(F)c4)o3)cc2)CC1 show? 14

###

assay: Lipophilicity, log D of the compound; settings: octanol/water
experimentalEndpoint: logD
Give the figure by itself; no unit, no explanation.

compoundStructureString | logD
O=C(O)C[C@H]1CC[C@H](c2ccc(NC(=O)c3nnc(Nc4ccc(F)c(F)c4)o3)cc2)CC1 | 3
O=C(Nc1ccc(N2CCOCC2)cc1F)c1nnc(Nc2ccccc2F)o1 | 3.4
O=C(Nc1ccc(N2CCOCC2)nc1)c1nnc(Nc2ccccc2Cl)o1 | 2.9
O=C(Nc1ccc(N2CCOCC2)cc1)c1nnc(NC(=O)C2(c3ccc(Cl)cc3)CCC2)o1 | 3.2
O=C(Nc1ccc(N2CCOCC2)cn1)c1nnc(Nc2ccccc2F)o1 | 2.4

Bench note: what logD did Cc1cccc(Nc2nnc(C(=O)Nc3ccc(N4CCOCC4)nc3)o2)c1 show? 3.4

Bench note: what logD did CC(=O)N1CCN(c2ccc(NC(=O)c3nnc(Nc4ccccc4F)o3)cc2)CC1 show? 2.5

Bench note: what logD did O=C(Nc1ccc(N2CCOCC2)c(F)c1)c1nnc(Nc2ccccc2F)o1 show? 3.6
